# MIC listing for each entry below
- System: LoVo
- measurement-protocol: Cytotoxicity against human LoVo cells
- Type: functional
Please state the figure in µg/mL; there is no need to write the unit.

Worked cases, answers included:
Provide the documented MIC with LoVo as the system for CC(CC/C=C/CC/C=C/c1ccccc1)C[C@]1(C)C[C@@](C)(CC(=O)O)OO1 (stereo partly drawn) [PLAKINIC ACID D]
0.001

For the record CC(CCCC/C=C/CC/C=C\c1ccccc1)C[C@]1(C)C[C@](C)(CC(=O)O)OO1 (stereo partly drawn) [EPIPLAKINIC ACID C] , what value of MIC is listed for LoVo?
1

Please tell me: MIC of COC(=O)C[C@]1(C)C[C@@](C)(CC(C)CCCC/C=C/CC/C=C\c2ccccc2)OO1 (stereo partly drawn) , system LoVo?
1

What MIC appears in the records for this compound with LoVo? COC(=O)C[C@]1(C)C[C@@](C)(CC(C)CC/C=C/CC/C=C/c2ccccc2)OO1 (stereo partly drawn)
0.1

More entries:
GET /values?readout=MIC&system=LoVo&item= CC(CC/C=C/CC/C=C/c1ccccc1)C[C@@]1(C)C[C@@](C)(CC(=O)O)OO1 (stereo partly drawn) [EPIPLAKINIC ACID D]
0.1

Can you look up MIC on LoVo for COC(=O)C[C@@]1(C)C[C@@](C)(CC(C)CCCC/C=C/CC/C=C\c2ccccc2)OO1 (stereo partly drawn) ?
1

Provide value of MIC for this record tested with LoVo: CC(CCCC/C=C/CC/C=C\c1ccccc1)C[C@]1(C)C[C@@](C)(CC(=O)O)OO1 (stereo partly drawn) [PLAKINIC ACID C]
0.1

Recall the recorded MIC for COC(=O)C[C@@]1(C)C[C@@](C)(CC(C)CC/C=C/CC/C=C/c2ccccc2)OO1 (stereo partly drawn) with LoVo and state it.
0.1
